# Tested on: Porcine Atria myofibrils
# Test Protocol: Myofibril ATPase assay (PK/LDH NADH-coupled), atria myofibrils
# Format: biochemical
# Condition Label: Table 7
Readout: Porcine Atria IC25

See these solved cases before continuing.
C[C@H](NC(=O)[C@H](C)N1Cc2c(ccnc2Br)NC1=O)c1ccc(F)cc1F	0.22 µM
C[C@@H](NC(=O)CN1Cc2c(C#N)cncc2NC1=O)c1ncc(F)cc1F	60.44 µM
C[C@H](NC(=O)CN1Cc2nc(C(F)(F)F)ccc2NC1=O)c1ccc(F)cc1F	0.23 µM
C[C@H](NC(=O)CN1Cc2nc(C#N)ccc2NC1=O)c1ccc(F)cc1F	1.15 µM
C[C@@H](NC(=O)CN1Cc2cc(F)cnc2NC1=O)c1ncc(F)cc1F	100.00 µM

Task: Returns the measured Porcine Atria IC25 for the input compound. Input: C[C@H](NC(=O)CN1C(=O)Nc2cccnc2C12CC2)c1ncc(C#N)cc1F
Result: 0.15 µM

Task: Returns the measured Porcine Atria IC25 for the input compound. Input: C[C@H](NC(=O)CN1C(=O)Nc2cccnc2C12COC2)c1ccc(F)cc1F
Result: 6.39 µM

Task: Returns the measured Porcine Atria IC25 for the input compound. Input: C[C@H](NC(=O)[C@@H](C)N1Cc2nc(F)ccc2NC1=O)c1ccc(F)cc1
Result: 8.28 µM

###

# Tested Target: Porcine Ventricle myofibrils (left ventricle of Yucatan minipigs) (Sus scrofa)
# Construct: Myofibrils from porcine cardiac muscle was isolated from the left ventricle of Yucatan minipigs; tissue Exemplar Genetics; host or cells: left ventricle of Yucatan minipigs
# Sequence (P79293 whole entry): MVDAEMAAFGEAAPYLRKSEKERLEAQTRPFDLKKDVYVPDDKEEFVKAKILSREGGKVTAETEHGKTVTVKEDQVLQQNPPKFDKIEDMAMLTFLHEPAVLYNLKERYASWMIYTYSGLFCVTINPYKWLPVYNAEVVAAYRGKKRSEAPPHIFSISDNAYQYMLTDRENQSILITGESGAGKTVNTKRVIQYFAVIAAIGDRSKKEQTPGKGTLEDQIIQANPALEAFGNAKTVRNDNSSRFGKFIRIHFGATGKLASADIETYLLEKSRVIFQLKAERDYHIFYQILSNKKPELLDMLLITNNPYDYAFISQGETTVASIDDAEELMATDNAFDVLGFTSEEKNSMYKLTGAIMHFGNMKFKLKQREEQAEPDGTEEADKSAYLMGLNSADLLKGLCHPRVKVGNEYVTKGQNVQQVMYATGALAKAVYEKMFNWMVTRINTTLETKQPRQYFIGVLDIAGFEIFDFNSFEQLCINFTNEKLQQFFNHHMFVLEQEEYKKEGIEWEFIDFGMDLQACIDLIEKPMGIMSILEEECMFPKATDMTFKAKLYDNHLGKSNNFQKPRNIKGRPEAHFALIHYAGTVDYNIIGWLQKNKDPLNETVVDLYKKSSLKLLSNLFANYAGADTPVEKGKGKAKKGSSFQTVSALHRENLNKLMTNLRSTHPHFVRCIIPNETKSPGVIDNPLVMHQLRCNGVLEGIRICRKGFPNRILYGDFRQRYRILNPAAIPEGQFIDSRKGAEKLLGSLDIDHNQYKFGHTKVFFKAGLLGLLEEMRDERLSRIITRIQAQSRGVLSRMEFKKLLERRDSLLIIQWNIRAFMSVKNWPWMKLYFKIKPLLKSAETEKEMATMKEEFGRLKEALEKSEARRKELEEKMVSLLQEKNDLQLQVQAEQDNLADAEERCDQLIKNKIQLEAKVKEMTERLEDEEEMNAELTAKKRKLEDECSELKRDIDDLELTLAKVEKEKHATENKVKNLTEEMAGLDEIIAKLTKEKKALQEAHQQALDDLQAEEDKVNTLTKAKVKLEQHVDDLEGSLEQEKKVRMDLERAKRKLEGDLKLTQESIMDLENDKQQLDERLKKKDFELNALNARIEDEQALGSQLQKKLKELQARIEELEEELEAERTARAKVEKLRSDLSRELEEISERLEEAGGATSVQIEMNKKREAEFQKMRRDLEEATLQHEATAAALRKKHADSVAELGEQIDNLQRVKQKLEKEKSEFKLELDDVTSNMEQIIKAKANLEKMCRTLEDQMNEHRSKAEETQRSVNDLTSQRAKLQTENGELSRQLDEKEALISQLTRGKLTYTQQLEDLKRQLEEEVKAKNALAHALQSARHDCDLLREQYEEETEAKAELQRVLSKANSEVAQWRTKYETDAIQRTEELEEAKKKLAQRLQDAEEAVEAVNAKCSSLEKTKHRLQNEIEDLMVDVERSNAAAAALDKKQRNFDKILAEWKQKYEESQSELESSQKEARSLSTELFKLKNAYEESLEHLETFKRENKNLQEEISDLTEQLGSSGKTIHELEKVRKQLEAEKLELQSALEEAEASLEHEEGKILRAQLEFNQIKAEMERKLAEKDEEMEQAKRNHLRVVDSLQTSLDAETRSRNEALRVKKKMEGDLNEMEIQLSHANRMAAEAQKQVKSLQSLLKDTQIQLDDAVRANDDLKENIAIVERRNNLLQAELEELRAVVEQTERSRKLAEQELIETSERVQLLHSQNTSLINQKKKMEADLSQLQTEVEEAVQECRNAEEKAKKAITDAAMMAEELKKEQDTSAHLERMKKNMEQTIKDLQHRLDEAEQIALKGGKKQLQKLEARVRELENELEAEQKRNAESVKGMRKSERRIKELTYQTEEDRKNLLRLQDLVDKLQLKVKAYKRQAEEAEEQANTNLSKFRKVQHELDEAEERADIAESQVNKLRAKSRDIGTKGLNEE
# Test Protocol: Myofibril ATPase assay (PK/LDH NADH-coupled), ventricle myofibrils
# Type: biochemical
# Condition Label: Table 8
Readout: Porcine Ventricle IC25 (µM)
Supply the numeric figure in µM, leaving out any unit text.

Task: Returns the measured Porcine Ventricle IC25 for the input compound. Input: C[C@H](C(=O)N[C@H](CO)c1ccc(F)cc1F)N1Cc2c(Cl)cccc2NC1=O
Result: 100

Task: Returns the measured Porcine Ventricle IC25 for the input compound. Input: Cc1nsc([C@H](C)NC(=O)CN2Cc3c(ccc(F)c3F)NC2=O)n1
Result: 52.51

Task: Returns the measured Porcine Ventricle IC25 for the input compound. Input: C[C@@H](NC(=O)CN1C(=O)Nc2ccc(F)cc2C12CC2)c1ncc(F)cc1F
Result: 31.68

Task: Returns the measured Porcine Ventricle IC25 for the input compound. Input: N#Cc1c(F)ccc2c1CN(CC(=O)N[C@@H]1COc3cc(F)cc(F)c31)C(=O)N2
Result: 0.1215

###

# Tested on: Rabbit Skeletal myofibrils (rabbit psoas muscle)
# Test Protocol: Myofibril ATPase assay (PK/LDH NADH-coupled), skeletal myofibrils
# Assay type: biochemical
# Condition Label: Table 8
Readout: Rabbit Psoas IC25 (µM)
Supply the numeric figure in µM, leaving out any unit text.

See these solved cases before continuing.
C[C@@H](NC(=O)CN1Cc2c(ccc(F)c2F)NC1=O)c1nc(-c2ccc(F)cn2)no1	4.582
N#Cc1cc(F)c2c(c1)OC[C@H]2NC(=O)CN1Cc2c(ccc(F)c2C#N)NC1=O	0.2366
Cc1nc(C(C)NC(=O)CN2Cc3c(ccc(F)c3F)NC2=O)no1 (centres unmarked)	100.00

Task: Returns the measured Rabbit Psoas IC25 for the input compound. Input: C[C@@H](NC(=O)CN1Cc2c(ccc(F)c2F)NC1=O)c1ncc(Br)cc1F
Result: 0.42

Task: Returns the measured Rabbit Psoas IC25 for the input compound. Input: O=C(CN1Cc2c(ccc(F)c2F)NC1=O)N[C@@H]1COc2cc(F)cc(F)c21
Result: 0.01623

Task: Returns the measured Rabbit Psoas IC25 for the input compound. Input: C[C@@H](NC(=O)CN1Cc2c(ccc(F)c2F)NC1=O)c1ccc(C#N)cc1F
Result: 0.4649

Task: Returns the measured Rabbit Psoas IC25 for the input compound. Input: Cc1nnc(C(C)NC(=O)CN2Cc3c(ccc(F)c3F)NC2=O)o1 (centres unmarked)
Result: 100.00

Task: Returns the measured Rabbit Psoas IC25 for the input compound. Input: C[C@H](NC(=O)[C@@H](C)N1Cc2c(ccc(F)c2F)NC1=O)c1ccc(F)cc1F
Result: 0.0333
